Provenance of the data: patent US7544694B2

# assayed system: NK2 (Homo sapiens)
# method: Signal transduction (ST), intracellular Ca++ (FLIPR), NK2
# Type: cell-based
# condition: antagonist, read-out: NK2 pIC50 (converted)
endpoint label: IC50 (µM)

| molecule | endpoint label | result value |
| --- | --- | --- |
| COc1ccc(S(=O)(=O)N2CCC3(CCN([C@H]4CCN(C(=O)c5cc(C(F)(F)F)cc(C(F)(F)F)c5)[C@H](Cc5ccccc5)C4)CC3)CC2)cc1OC | IC50 | 3.98 |
| O=C(C(CO)c1ccccc1)N1CCC2(CC1)CCN([C@H]1CCN(C(=O)c3cc(C(F)(F)F)cc(C(F)(F)F)c3)[C@H](Cc3ccccc3)C1)CC2 (stereo partly drawn) | IC50 | 3.02 |
| CC(C)(C)CC(=O)N1CCC2(CC1)CCN([C@H]1CCN(C(=O)c3cc(C(F)(F)F)cc(C(F)(F)F)c3)[C@H](Cc3ccccc3)C1)CC2 | IC50 | 3.09 |
| O=C1CC2(CCN1Cc1ccccc1F)CCN([C@@H]1CCN(C(=O)c3cc(C(F)(F)F)cc(C(F)(F)F)c3)[C@H](Cc3ccccc3)C1)CC2 | IC50 | 3.39 |
| O=C1CC2(CCN1CC1CCC1)CCN([C@@H]1CCN(C(=O)c3cc(C(F)(F)F)cc(C(F)(F)F)c3)[C@H](Cc3ccccc3)C1)CC2 | IC50 | 2.88 |

----------
# assayed system: NK1 (Homo sapiens)
# Sequence (P25103 whole entry): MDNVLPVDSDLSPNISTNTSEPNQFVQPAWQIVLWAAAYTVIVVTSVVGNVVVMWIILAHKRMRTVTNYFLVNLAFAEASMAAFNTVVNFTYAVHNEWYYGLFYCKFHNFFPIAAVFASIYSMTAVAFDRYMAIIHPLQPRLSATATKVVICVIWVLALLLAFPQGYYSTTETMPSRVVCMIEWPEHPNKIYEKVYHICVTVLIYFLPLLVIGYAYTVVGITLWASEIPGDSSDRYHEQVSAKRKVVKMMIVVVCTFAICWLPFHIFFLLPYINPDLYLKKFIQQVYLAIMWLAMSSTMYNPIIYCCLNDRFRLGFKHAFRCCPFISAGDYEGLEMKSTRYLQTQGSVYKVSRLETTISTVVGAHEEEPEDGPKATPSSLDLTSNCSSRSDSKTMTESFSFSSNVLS
# method: Signal transduction (ST), intracellular Ca++ (FLIPR), functional NK1 antagonistic activity
# Assay type: cell-based
# condition: antagonist, read-out: NK1 pIC50 (converted)
# Method: This test evaluates in vitro functional NK1 antagonistic activity. For the measurements of intracellular Ca^++ concentrations the cells were grown on 96-well (black wall/transparent bottom) plates from Costar for 2 days until they reached confluence. […] The cells were preincubated with a concentration range of antagonists for 20 min at RT and Ca^++-signals after addition of the agonists were measured in a Fluorescence Image Plate Reader (FLIPR from Molecular Devices, Crawley, England). […]
endpoint label: IC50 (nM)

[1] N#Cc1ccc(C(=O)N2CCC3(CC2)CCN([C@H]2CCN(C(=O)c4cc(C(F)(F)F)cc(C(F)(F)F)c4)[C@H](Cc4ccccc4)C2)CC3)cc1
[2] Cc1noc(C)c1S(=O)(=O)N1CCC2(CCN([C@H]3CCN(C(=O)c4cc(C(F)(F)F)cc(C(F)(F)F)c4)[C@H](Cc4ccccc4)C3)CC2)CC1
[3] Cc1nnsc1C(=O)N1CCC2(CC1)CCN([C@H]1CCN(C(=O)c3cc(C(F)(F)F)cc(C(F)(F)F)c3)[C@H](Cc3ccccc3)C1)CC2
Input: Sort entries by IC50 from minimum to maximum value. Response format: the labels, sorted as the prompt asks.
Output: 3, 2, 1
(3: 28.2 nM, 2: 49 nM, 1: 105 nM)

----------
# assayed system: NK2 (Homo sapiens)
# Sequence (P21452 1-398): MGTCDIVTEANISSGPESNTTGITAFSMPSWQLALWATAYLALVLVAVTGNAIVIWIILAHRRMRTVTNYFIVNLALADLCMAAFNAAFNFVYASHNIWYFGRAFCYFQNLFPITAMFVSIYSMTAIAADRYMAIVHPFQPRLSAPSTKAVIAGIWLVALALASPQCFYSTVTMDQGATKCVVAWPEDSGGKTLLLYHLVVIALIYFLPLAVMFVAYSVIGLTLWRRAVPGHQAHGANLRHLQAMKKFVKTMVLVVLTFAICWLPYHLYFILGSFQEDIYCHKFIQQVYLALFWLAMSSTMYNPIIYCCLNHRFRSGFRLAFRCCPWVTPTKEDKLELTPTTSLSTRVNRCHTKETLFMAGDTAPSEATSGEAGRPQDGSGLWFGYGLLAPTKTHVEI
# method: Signal transduction (ST), intracellular Ca++ (FLIPR), NK2
# Assay type: cell-based
# condition: antagonist, read-out: NK2 pIC50 (converted)
endpoint label: IC50 (µM)

| compound structure | endpoint label | result value |
| --- | --- | --- |
| O=C(c1cnccn1)N1CCC2(CC1)CCN([C@H]1CCN(C(=O)c3cc(C(F)(F)F)cc(C(F)(F)F)c3)[C@H](Cc3ccccc3)C1)CC2 | IC50 | 2.88 |
| Cc1noc(C)c1CN1CCC2(CCN([C@@H]3CCN(C(=O)c4cc(C(F)(F)F)cc(C(F)(F)F)c4)[C@H](Cc4ccccc4)C3)CC2)CC1=O | IC50 | 2.82 |
| Cc1occc1C(=O)N1CCC2(CC1)CCN([C@H]1CCN(C(=O)c3cc(C(F)(F)F)cc(C(F)(F)F)c3)[C@H](Cc3ccccc3)C1)CC2 | IC50 | 4.47 |

[A] Cc1nc2ccc(C(=O)N3CCC4(CC3)CCN([C@H]3CCN(C(=O)c5cc(C(F)(F)F)cc(C(F)(F)F)c5)[C@H](Cc5ccccc5)C3)CC4)cc2[nH]1
[B] O=C(c1ccsc1)N1CCC2(CC1)CCN([C@H]1CCN(C(=O)c3cc(C(F)(F)F)cc(C(F)(F)F)c3)[C@H](Cc3ccc(Cl)c(Cl)c3)C1)CC2
Input: Returns the identifier with the smallest measured IC50 among A and B . Refer to your chosen entry by its label in the reply.
Output: B

----------
# assayed system: NK2 (Homo sapiens)
# method: Signal transduction (ST), intracellular Ca++ (FLIPR), NK2
# Type: cell-based
# condition: antagonist, read-out: NK2 pIC50 (converted)
endpoint label: IC50 (µM)

| molecule | endpoint label | unit descriptor | result value |
| --- | --- | --- | --- |
| O=C(C1CCOC1)N1CCCC2(CCN([C@H]3CCN(C(=O)c4cc(C(F)(F)F)cc(C(F)(F)F)c4)[C@H](Cc4ccccc4)C3)CC2)C1 (stereo partly drawn) [Compound 174] | IC50 | µM | 6.92 |
| O=C(Cc1ccc2c(c1)OCO2)N1CCC2(CC1)CCN([C@H]1CCN(C(=O)c3cc(C(F)(F)F)cc(C(F)(F)F)c3)[C@H](Cc3ccccc3)C1)CC2 [Compound 81] | IC50 | µM | 5.25 |
| CC(C)(C)OC(=O)N1CCCC1C(=O)N1CCC2(CCN(C[C@H]3CCN(C(=O)c4cc(C(F)(F)F)cc(C(F)(F)F)c4)[C@H](Cc4ccccc4)C3)CC2)CC1 (stereo partly drawn) [Compound 181] | IC50 | µM | 7.08 |

----------
# assayed system: NK3 (Homo sapiens, UniProt P29371)
# Sequence (P29371 whole entry): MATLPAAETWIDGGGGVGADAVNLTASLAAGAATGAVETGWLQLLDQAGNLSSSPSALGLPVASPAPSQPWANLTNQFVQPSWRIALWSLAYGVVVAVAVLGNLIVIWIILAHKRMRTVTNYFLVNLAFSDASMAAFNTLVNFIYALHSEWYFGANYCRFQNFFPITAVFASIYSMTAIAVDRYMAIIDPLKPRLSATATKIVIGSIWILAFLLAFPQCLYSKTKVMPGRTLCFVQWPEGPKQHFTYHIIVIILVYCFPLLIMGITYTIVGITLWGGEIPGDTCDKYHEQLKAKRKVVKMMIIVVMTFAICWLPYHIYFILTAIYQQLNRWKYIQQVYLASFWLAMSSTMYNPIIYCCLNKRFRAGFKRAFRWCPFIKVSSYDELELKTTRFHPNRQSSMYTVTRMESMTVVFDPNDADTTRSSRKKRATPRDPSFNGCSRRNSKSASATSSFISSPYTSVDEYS
# method: Signal transduction (ST), intracellular Ca++ (FLIPR), NK3
# Type: cell-based
# condition: antagonist, read-out: NK3 pIC50 (converted)
endpoint label: IC50

Answered cases to consult:
| compound | IC50 |
| --- | --- |
| O=C(c1ccc(=O)oc1)N1CCC2(CC1)CCN([C@H]1CCN(C(=O)c3cc(C(F)(F)F)cc(C(F)(F)F)c3)[C@H](Cc3ccccc3)C1)CC2 [Compound 46] | > 10 µM |
| Cc1noc(C)c1C(=O)N1CCC2(CC1)CCN([C@H]1CCN(C(=O)c3cc(C(F)(F)F)cc(C(F)(F)F)c3)[C@H](Cc3ccccc3)C1)CC2 [Compound 35] | > 10 µM |
| O=C(Cc1ccc2c(c1)OCO2)N1CCC2(CC1)CCN([C@H]1CCN(C(=O)c3cc(C(F)(F)F)cc(C(F)(F)F)c3)[C@H](Cc3ccccc3)C1)CC2 [Compound 81] | > 10 µM |
| Cc1nnsc1C(=O)N1CCC2(CCN(C[C@H]3CCN(C(=O)c4cc(C(F)(F)F)cc(C(F)(F)F)c4)[C@H](Cc4ccccc4)C3)CC2)CC1 [Compound 183] | 7.41 µM |
| O=C(c1ccncc1)N1CCC2(CC1)CCN([C@H]1CCN(C(=O)c3cc(C(F)(F)F)cc(C(F)(F)F)c3)[C@H](Cc3ccccc3)C1)CC2 [Compound 51] | > 10 µM |

With those in mind, consider the next compound.
Input: // lookup IC50 for CC(C)(C)C1CCC(C(=O)N2CCC3(CC2)CCN([C@H]2CCN(C(=O)c4cc(C(F)(F)F)cc(C(F)(F)F)c4)[C@H](Cc4ccccc4)C2)CC3)CC1 (stereo partly drawn) [Compound 40]
Output: > 10 µM

----------
# assayed system: NK2 (Homo sapiens, UniProt P21452)
# method: Signal transduction (ST), intracellular Ca++ (FLIPR), NK2
# Type: cell-based
# condition: antagonist, read-out: NK2 pIC50 (converted)
endpoint label: IC50 (µM)

[P] O=C(C1CCOC1)N1CCCC2(CCCN(C3CCN(C(=O)c4cc(C(F)(F)F)cc(C(F)(F)F)c4)C(Cc4ccccc4)C3)C2)C1 (single isomer, unassigned) [Compound 211]
[Q] O=C(c1ccc2c(c1)OCO2)N1CCC2(CC1)CCN([C@@H]1CCN(C(=O)c3cc(C(F)(F)F)cc(C(F)(F)F)c3)[C@H](Cc3ccccc3)C1)CC2 [Compound 63]
[R] O=C(C1CCCC1)N1CCC2(CC1)CCN([C@@H]1CCN(C(=O)c3cc(C(F)(F)F)cc(C(F)(F)F)c3)[C@H](Cc3ccccc3)C1)CC2 [Compound 18]
Input: Sort entries by IC50 from minimum to maximum value. Response format: the labels, sorted as the prompt asks.
Output: R, P, Q
(R: 1.2 µM, P: 4.57 µM, Q: 7.94 µM)
